# Target or system: Gastrin/cholecystokinin type B receptor (Homo sapiens, UniProt P32239)
# Sequence (P32239 whole entry): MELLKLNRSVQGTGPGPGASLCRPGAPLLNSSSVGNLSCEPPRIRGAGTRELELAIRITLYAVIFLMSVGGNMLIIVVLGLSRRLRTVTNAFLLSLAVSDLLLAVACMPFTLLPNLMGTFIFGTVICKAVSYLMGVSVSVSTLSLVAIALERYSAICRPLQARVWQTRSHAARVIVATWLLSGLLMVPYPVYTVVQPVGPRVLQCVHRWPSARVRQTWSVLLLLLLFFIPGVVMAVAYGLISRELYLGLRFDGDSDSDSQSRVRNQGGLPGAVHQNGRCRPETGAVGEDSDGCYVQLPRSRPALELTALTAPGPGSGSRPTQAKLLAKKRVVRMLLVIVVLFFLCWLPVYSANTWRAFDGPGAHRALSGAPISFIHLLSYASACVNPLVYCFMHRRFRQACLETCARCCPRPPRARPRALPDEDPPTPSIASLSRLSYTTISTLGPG
# Method notes: Displacement of [125I]CCK from gastrin receptor isolated from human tumor tissues
Peptide text beside a SMILES is read from it.
Known IC50 of a selection of compounds
API: value field is a number in nM; no unit string.

Compound	IC50 [nM]
CSCC[C@H](NC(=O)[C@H](Cc1c[nH]c2ccccc12)NC(=O)CNC(=O)[C@H](Cc1ccc(O)cc1)NC(=O)[C@H](C)NC(=O)[C@@H](CCC(N)=O)NC(=O)[C@@H](CCC(N)=O)NC(=O)[C@@H](CCC(N)=O)NC(=O)[C@@H](CCC(N)=O)NC(=O)CN1CCN(CC(=O)O)CCN(CC(=O)O)CCN(CC(=O)O)CC1)C(=O)N[C@@H](CC(=O)O)C(=O)N[C@@H](Cc1ccccc1)C(N)=O	2.4
CSCC[C@H](NC(=O)[C@H](Cc1c[nH]c2ccccc12)NC(=O)CNC(=O)[C@H](Cc1ccc(O)cc1)NC(=O)[C@H](C)NC(=O)[C@@H](CCC(N)=O)NC(=O)[C@@H](CCC(N)=O)NC(=O)[C@@H](CCC(N)=O)NC(=O)CN1CCN(CC(=O)O)CCN(CC(=O)O)CCN(CC(=O)O)CC1)C(=O)N[C@@H](CC(=O)O)C(=O)N[C@@H](Cc1ccccc1)C(N)=O (HELM PEPTIDE1{[O=C(O)CN1CCN(CC(=O)O)CCN(CC(=O)[*:2])CCN(CC(=O)O)CC1].[dQ].[dQ].[dQ].A.Y.G.W.M.D.F.[am]}$$$$V2.0)	3.6
CSCC[C@H](NC(=O)[C@H](Cc1c[nH]c2ccccc12)NC(=O)CNC(=O)[C@H](Cc1ccc(O)cc1)NC(=O)[C@H](C)NC(=O)[C@H](CCC(=O)O)NC(=O)[C@H](CCC(=O)O)NC(=O)[C@H](CCC(=O)O)NC(=O)[C@H](CCC(=O)O)NC(=O)[C@H](CCC(=O)O)NC(=O)[C@H](CCC(=O)O)NC(=O)CN1CCN(CC(=O)O)CCN(CC(=O)O)CCN(CC(=O)O)CC1)C(=O)N[C@@H](CC(=O)O)C(=O)N[C@@H](Cc1ccccc1)C(N)=O	0.7
CSCC[C@H](NC(=O)[C@H](Cc1c[nH]c2ccccc12)NC(=O)CNC(=O)[C@H](Cc1ccc(O)cc1)NC(=O)[C@H](C)NC(=O)[C@@H](CO)NC(=O)[C@@H](CO)NC(=O)CN1CCN(CC(=O)O)CCN(CC(=O)O)CCN(CC(=O)O)CC1)C(=O)N[C@@H](CC(=O)O)C(=O)N[C@@H](Cc1ccccc1)C(N)=O	0.9
CSCC[C@H](NC(=O)[C@H](Cc1c[nH]c2ccccc12)NC(=O)CNC(=O)[C@H](Cc1ccc(O)cc1)NC(=O)[C@H](C)NC(=O)[C@@H](CCC(N)=O)NC(=O)[C@@H](CCC(N)=O)NC(=O)CN1CCN(CC(=O)O)CCN(CC(=O)O)CCN(CC(=O)O)CC1)C(=O)N[C@@H](CC(=O)O)C(=O)N[C@@H](Cc1ccccc1)C(N)=O	0.8
CSCC[C@H](NC(=O)[C@H](Cc1c[nH]c2ccccc12)NC(=O)CNC(=O)[C@H](Cc1ccc(O)cc1)NC(=O)[C@H](C)NC(=O)[C@@H](CO)NC(=O)[C@@H](CO)NC(=O)[C@@H](CO)NC(=O)CN1CCN(CC(=O)O)CCN(CC(=O)O)CCN(CC(=O)O)CC1)C(=O)N[C@@H](CC(=O)O)C(=O)N[C@@H](Cc1ccccc1)C(N)=O	0.6

Now, please, on to the next compound.
Recorded IC50 (compound CCCC[C@H](NC(=O)[C@H](Cc1c[nH]c2ccccc12)NC(=O)CNC(=O)[C@H](Cc1ccc(O)cc1)NC(=O)[C@H](C)NC(=O)[C@@H](CCC(N)=O)NC(=O)[C@@H](CCC(N)=O)NC(=O)[C@@H](CCC(N)=O)NC(=O)CN1CCN(CC(=O)O)CCN(CC(=O)O)CCN(CC(=O)O)CC1)C(=O)N[C@@H](CC(=O)O)C(=O)N[C@@H](Cc1ccccc1)C(N)=O ): 1.6
